Exercise: state measured protein stability index for each of the variants provided.
B1: ZNF449 (parent)
chain: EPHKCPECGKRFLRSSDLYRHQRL

# Variants of: B1
# Experimental protocol: protein stability index of a GFP-peptide fusion (GPS, HEK-293T) (PSI 1-6); higher = more stable;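 note: lentivirally expressed fusions sorted by FACS into six bins by GFP to DsRed ratio, PSI derived from sequencing read proportions per bin multiplied by bin number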
# Conditions: c terminus: a fixed tail appended
One number for each entry.

> print(dat)
                   sequence.chain       attribute.measured  measurement
1  EPHKCPESGKRFLRSSDLYRHQRL [C8S]  protein stability index         3.37

Each variant below has a recorded value; state its protein stability index.
1. EPHKAPECGKRFLRSSDLYRHQRL [C5A]
2. EPHKYPECGKRFLRSSDLYRHQRL [C5Y]
3. EPMKCPECGKRFLRSSDLYRHQRL [H3M]
4. EPHKCPECNKRFLRSSDLYRHQRL [G9N]
5. EPHKCVECGKRFLRSSDLYRHQRL [P6V]
6. EPHKCYECGKRFLRSSDLYRHQRL [P6Y]

A.
1: 3.69; 2: 3.14; 3: 3.79; 4: 3.14; 5: 3.57; 6: 3.53

Reference for the values: the supplement of paper PMC10567573
